Listing: growth of selected compounds
system: NCI-H322M lung; assay: NCI-60 one-dose screen, 48 h (100 = growth as untreated, 0 = no growth, -100 = all killed); details: 10 µM unless noted
About 83,000 compounds went through this panel and 20% of them were active in at least one assay; those are over-represented in the sample as a whole.

compound: COC1C(O)CC(OC2CC(OC3CC(O[C@@H]4C(=O)c5c(cc6cc(OC7CC(OC8CC(O)C(O)C(C)O8)C(O)C(C)O7)c(C)c(O)c6c5O)CC4[C@H](OC)[C@@H](O)C(C)=O)OC(C)C3O)OC(C)C2O)OC1C (some centres not stated)
growth / %: 4.31

compound: CCN(CC)CCOc1ccc(/C(=C(\C)Cc2ccc(OC)cc2)c2ccc(OC(=O)NCc3ccccc3)cc2)cc1
growth / %: 80.4

compound: Cc1cn(C)cn1
growth / %: 116

compound: N#Cc1c(-c2ccc(Cl)cc2)nc(NN=Cc2ccc[nH]2)nc1N1CCOCC1
growth / %: 95.4

compound: CCCCCCCCCCOC(=O)c1nn(C(C)=O)c2cc(C)c(C)cc12
growth / %: 107

compound: COc1cc(/C=C/C(=O)N2CCN(C(=O)c3cc(OC)c(OC)c(OC)c3)CC2)ccc1OCCCOc1cc2c(cc1OC)C(=O)N1CCC[C@H]1C=N2
growth / %: -5.89

compound: CC(C)(C)OC(=O)CN1CCc2c(sc3ncnc(N4CCN(c5ccc(F)cc5)CC4)c23)C1
growth / %: 83.6
